# assayed_system: hERG (Homo sapiens, UniProt Q12809)
# Sequence (Q12809 whole entry): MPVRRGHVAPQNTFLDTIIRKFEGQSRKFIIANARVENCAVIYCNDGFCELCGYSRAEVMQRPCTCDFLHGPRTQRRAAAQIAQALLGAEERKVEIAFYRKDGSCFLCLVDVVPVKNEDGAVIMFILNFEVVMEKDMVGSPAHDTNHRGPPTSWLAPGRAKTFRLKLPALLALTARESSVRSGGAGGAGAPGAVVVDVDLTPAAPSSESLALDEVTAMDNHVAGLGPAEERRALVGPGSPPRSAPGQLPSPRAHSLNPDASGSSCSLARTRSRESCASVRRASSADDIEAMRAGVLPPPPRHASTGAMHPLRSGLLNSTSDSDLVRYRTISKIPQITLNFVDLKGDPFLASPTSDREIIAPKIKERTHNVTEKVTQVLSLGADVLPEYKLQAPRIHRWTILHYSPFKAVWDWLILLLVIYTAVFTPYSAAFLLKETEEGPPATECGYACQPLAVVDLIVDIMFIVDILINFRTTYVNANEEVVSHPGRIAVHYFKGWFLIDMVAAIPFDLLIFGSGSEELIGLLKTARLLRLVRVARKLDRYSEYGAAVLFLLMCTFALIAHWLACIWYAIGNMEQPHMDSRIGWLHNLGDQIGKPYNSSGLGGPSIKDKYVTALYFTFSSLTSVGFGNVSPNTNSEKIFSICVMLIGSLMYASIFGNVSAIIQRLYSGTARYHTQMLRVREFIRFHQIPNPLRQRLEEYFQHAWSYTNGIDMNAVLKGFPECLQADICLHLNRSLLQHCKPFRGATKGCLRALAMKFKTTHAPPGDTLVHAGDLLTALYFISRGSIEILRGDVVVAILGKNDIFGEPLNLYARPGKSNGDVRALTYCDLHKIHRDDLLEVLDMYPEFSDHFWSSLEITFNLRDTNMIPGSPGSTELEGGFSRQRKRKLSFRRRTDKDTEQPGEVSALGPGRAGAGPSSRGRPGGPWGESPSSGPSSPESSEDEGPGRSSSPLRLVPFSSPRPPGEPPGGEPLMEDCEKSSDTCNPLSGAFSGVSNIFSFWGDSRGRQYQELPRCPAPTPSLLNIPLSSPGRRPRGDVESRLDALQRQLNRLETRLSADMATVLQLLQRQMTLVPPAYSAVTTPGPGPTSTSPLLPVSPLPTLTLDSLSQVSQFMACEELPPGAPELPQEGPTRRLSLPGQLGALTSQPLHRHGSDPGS
# test_method_notes: Inhibition of hERG at 10 uM incubated for 2 hrs relative to control
endpoint_label: inhibition at 2 h, 10 µM

Prompt: Field request: inhibition at 2 h, 10 µM | item: "FC(F)(F)c1ccc(-c2cc(-c3ccc(NCc4cccnc4)cc3)no2)cc1"
Response: 5.37%

---

# test_method_notes: Plasma protein binding in human at 5 uM incubated for 4 hrs under shaking condition by LC-MS/MS analysis
endpoint_label: fraction unbound at 4 h, 5 µM
One number for each entry.

Prompt: Field request: fraction unbound at 4 h, 5 µM | item: "FC(F)(F)c1ccc(-c2cc(-c3ccc(NCc4cccnc4)cc3)no2)cc1"
Response: 0.0047

---

# test_method_notes: Selectivity index, ratio of CC50 for African green monkey Vero cells infected with ZIKV MR766 to EC50 for ZIKV MR766 infected in Vero cells
endpoint_label: selectivity ratio
Give bare numbers.

c1ccc(-c2nc(-c3ccc(NCc4cccnc4)cc3)c[nH]2)cc1	2.6
c1ccc(-c2cnc(-c3ccc(NCc4cccnc4)cc3)o2)cc1	2.5

The record that follows has no selectivity ratio shown yet.
Prompt: Field request: selectivity ratio | item: "c1ccc(-c2noc(-c3ccc(NCc4cccnc4)cc3)n2)cc1"
Response: 11.6

---

Quick record: IC50, Cytochrome P450 2D6 (Homo sapiens, UniProt P10635).

FC(F)(F)c1ccc(-c2cc(-c3ccc(NCc4cccnc4)cc3)no2)cc1	> 99 µM
COc1ccccc1-c1cc(-c2ccc(NCc3cccnc3)cc2)no1	27.1 µM
N#Cc1ccc(-c2cc(-c3ccc(NCc4cccnc4)cc3)no2)cc1	> 99 µM

Prompt: Field request: IC50 | item: "c1cncc(CNc2ccc(-c3cc(-c4cncnc4)on3)cc2)c1"
Response: 3.5 µM

---

# test_method_notes: Cytotoxicity against African green monkey Vero E6 cells
# Type: toxicity, cell-based, Vero C1008
# recorded_conditions: chlorocebus sabaeus
endpoint_label: CC50

Prompt: Field request: CC50 | item: "CCn1c2ccccc2c2cc(NC(=O)Nc3ccc(N)cc3C)ccc21"
Response: > 12.5 µM

---

# test_method_notes: Stability in rat liver microsomes assessed as compound remaining at 1 uM incubated for 30 mins by LC-MS/MS analysis
endpoint_label: remaining at 0.5 h, 1 µM (%)
Numbers only, in %.

Prompt: Field request: remaining at 0.5 h, 1 µM | item: "FC(F)(F)c1ccc(-c2cc(-c3ccc(NCc4cccnc4)cc3)no2)cc1"
Response: 51.7

The reported numbers originate from ChEMBL document CHEMBL5576159.
